This collection of values is drawn from patent US8501781B2.

procedureSummary: logP by HPLC (EEC Directive 79/831 Annex V.A8)
Format: physicochemical
measurementSetup: [c] LC-MS, neutral range, pH 7.8, 0.001 molar aqueous ammonium bicarbonate and acetonitrile
Marks after values point to notes of the source that are not given here.
observedProperty: logP

molecule: O=C(OC1CCCCC1)c1csc(C2CCN(C(=O)CC3CCCC3)CC2)n1 [Example 83]
readoutValue: 4.12
//
molecule: Cc1ccc(F)cc1NC(=S)N1CCC(c2nc(C(=O)OCc3ccccc3Br)cs2)CC1 [Example 117]
readoutValue: 3.98^[c]; 3.98^[b]
//
molecule: Cc1cc(C(F)(F)F)nn1CC(=O)N1CCN(c2nc(C(=O)Oc3ccc4ccccc4c3)cs2)CC1 [Example 40]
readoutValue: 3.76
//
molecule: Cc1cc(C(F)(F)F)nn1CC(=O)N1CCN(c2nc(C(=O)OC3CCCc4ccccc43)cs2)CC1 (centres unmarked) [Example 43]
readoutValue: 3.91
//
molecule: O=C(OCc1ccccc1Br)c1csc(C2CCN(C(=S)Nc3cc(Cl)ccc3F)CC2)n1 [Example 115]
readoutValue: 4.14
//
molecule: Cc1cc(C(F)(F)F)nn1CC(=O)N1CCN(c2nc(C(=O)OCc3c(F)cccc3F)cs2)CC1 [Example 51]
readoutValue: 3.33
//
molecule: Cc1noc(C)c1NC(=S)N1CCC(c2nc(C(=O)OCc3ccccc3Br)cs2)CC1 [Example 119]
readoutValue: 3.21
//
molecule: Cc1cc(C(F)(F)F)nn1CC(=O)N1CCN(c2nc(C(=O)SC3CCCCC3)cs2)CC1 [Example 34]
readoutValue: 4.43^[c]

---

procedureSummary: logP by HPLC (EEC Directive 79/831 Annex V.A8)
Format: physicochemical
measurementSetup: [b] LC-MS, acidic range, pH 2.7, 0.1% aqueous formic acid and acetonitrile
observedProperty: logP

molecule: Cc1nc(C)n(CC(=O)N2CCC(c3nc(C(=O)Oc4cccc5ccccc45)cs3)CC2)n1 [Example 28]
observedProperty: logP
readoutValue: 2.17^[b]
--
molecule: Cc1ccc(C)c(NC(=O)N2CCC(c3nc(C(=O)Oc4ccccc4Br)cs3)CC2)c1 [Example 146]
observedProperty: logP
readoutValue: 3.58^[b]
--
molecule: Cc1noc(C)c1NC(=O)N1CCC(c2nc(C(=O)OC3CCCCC3)cs2)CC1 [Example 76]
observedProperty: logP
readoutValue: 2.66^[b]
--
molecule: COc1ccc(C)cc1NC(=O)N1CCC(F)(c2nc(C(=O)OC3CCCCC3)cs2)CC1 [Example 169]
observedProperty: logP
readoutValue: 4.4

---

procedureSummary: logP by HPLC (EEC Directive 79/831 Annex V.A8)
Assay type: physicochemical
measurementSetup: [b] LC-MS, acidic range, pH 2.7, 0.1% aqueous formic acid and acetonitrile
List of logP values.

compound: Cc1ccc(C)c(NC(=O)N2CCC(F)(c3nc(C(=O)OC4CCCCC4)cs3)CC2)c1
logP: 4.15^[c]; 4.15^[b]

compound: Cc1cc(C(F)(F)F)nn1CC(=O)N1CCN(c2nc(C(=O)OC(C)C3CCCCC3)cs2)CC1 (centres unmarked)
logP: 4.4

compound: Cc1ccc(Cl)c(NC(=O)N2CCC(c3nc(C(=O)OCc4ccccc4Br)cs3)CC2)c1
logP: 4.28

compound: Cc1ccc(C)c(NC(=O)N2CCC(c3nc(C(=O)OC(C)c4ccccc4F)cs3)CC2)c1 (centres unmarked)
logP: 3.71^[b]

compound: Cc1ccc(C)c(NC(=O)N2CCC(c3nc(C(=O)OCc4c(F)cccc4Br)cs3)CC2)c1
logP: 3.79^[b]

compound: Cc1ccc(C)c(NC(=O)N2CCC(c3nc(C(=O)OCc4c(Cl)cccc4Cl)cs3)CC2)c1
logP: 3.97^[b]

compound: Cc1ccc(Cl)cc1NC(=O)N1CCC(F)(c2nc(C(=O)OCc3c(F)cccc3F)cs2)CC1
logP: 3.87

compound: Cc1ccc(F)c(NC(=O)N2CCC(c3nc(C(=O)OCc4ccccc4Br)cs3)CC2)c1
logP: 3.85

---

procedureSummary: logP by HPLC (EEC Directive 79/831 Annex V.A8)
Type: physicochemical
measurementSetup: [b] LC-MS, acidic range, pH 2.7, 0.1% aqueous formic acid and acetonitrile
observedProperty: logP

compound: Cc1ccc(C)c(NC(=O)N2CCC(c3nc(C(=O)Oc4c(F)cccc4Cl)cs3)CC2)c1
observedProperty: logP
readoutValue: 3.62^[b]
//
compound: Cc1ccc(C)c(NC(=S)N2CCC(c3nc(C(=O)OCc4ccccc4Br)cs3)CC2)c1
observedProperty: logP
readoutValue: 3.68
//
compound: Cc1ccc([N+](=O)[O-])cc1NC(=O)N1CCC(c2nc(C(=O)OC3CCCCC3)cs2)CC1
observedProperty: logP
readoutValue: 3.62^[b]
//
compound: Cc1ccc(C)c(NC(=O)N2CCC(c3nc(C(=O)OCc4ccccc4Br)cs3)CC2)c1
observedProperty: logP
readoutValue: 3.86
//
compound: Cc1cc(C(F)(F)F)nn1CC(=O)N1CCN(c2nc(C(=O)Sc3ccc4ccccc4c3)cs2)CC1
observedProperty: logP
readoutValue: 4.33^[c]; 4.33^[b]
//
compound: CCCCC(=O)N1CCC(c2nc(C(=O)Oc3cccc4ccccc34)cs2)CC1
observedProperty: logP
readoutValue: 3.66^[b]
//
compound: O=C(OCc1ccccc1Br)c1csc(C2CCN(C(=S)Nc3cc(Cl)ccc3F)CC2)n1
observedProperty: logP
readoutValue: 4.15
//
compound: Cc1cc(C(F)(F)F)nn1CC(=O)N1CCN(c2nc(C(=O)Oc3ccc4ccccc4c3)cs2)CC1
observedProperty: logP
readoutValue: 3.81
//
compound: Cc1cc(C(F)(F)F)nn1CC(=O)N1CCC(F)(c2nc(C(=O)OC3CCCCC3)cs2)CC1
observedProperty: logP
readoutValue: 4.07
//
compound: Cc1oc(-c2ccccc2)nc1CC(=O)N1CCC(c2nc(C(=O)OC3CCCCC3)cs2)CC1
observedProperty: logP
readoutValue: 4.15^[b]
//
compound: Cc1cc(C(F)(F)F)nn1CC(=O)N1CCN(c2nc(C(=O)Oc3ccc(Cl)cc3Cl)cs2)CC1
observedProperty: logP
readoutValue: 3.96
//
compound: O=C(OC1CCCc2ccccc21)c1csc(C2CCN(C(=S)Nc3cc(F)ccc3F)CC2)n1 (centres unmarked)
observedProperty: logP
readoutValue: 4.06
//
compound: COc1cccc(F)c1OC(=O)c1csc(C2CCN(C(=O)Nc3cc(C)ccc3C)CC2)n1
observedProperty: logP
readoutValue: 3.28^[b]
//
compound: COc1cccc(Br)c1OC(=O)c1csc(C2CCN(C(=O)Nc3cc(C)ccc3C)CC2)n1
observedProperty: logP
readoutValue: 3.56^[b]
//
compound: O=C(OC1CCCCC1)c1csc(C2CCN(C(=O)Cc3cc(Cl)ccc3Cl)CC2)n1
observedProperty: logP
readoutValue: 4.49^[b]
//
compound: Cc1nc(CC(=O)N2CCC(c3nc(C(=O)Oc4cccc5ccccc45)cs3)CC2)c(C)s1
observedProperty: logP
readoutValue: 3.10^[b]
//
compound: Cc1cc(CC(=O)N2CCC(c3nc(C(=O)OC4CCCCC4)cs3)CC2)c(C)s1
observedProperty: logP
readoutValue: 4.24^[b]
//
compound: O=C(OCc1ccccc1Br)c1csc(C2CCN(C(=O)Cc3cc(Br)ccc3Br)CC2)n1
observedProperty: logP
readoutValue: 4.68
//
compound: Cc1ccc(Cl)cc1NC(=O)N1CCC(c2nc(C(=O)OCc3ccccc3Br)cs2)CC1
observedProperty: logP
readoutValue: 4.04
//
compound: Cc1ccc(C)c(NC(=O)N2CCC(c3nc(C(=O)Oc4c(Cl)cccc4Cl)cs3)CC2)c1
observedProperty: logP
readoutValue: 3.82^[b]
//
compound: Cc1cc(CC(=O)N2CCC(c3nc(C(=O)Oc4cccc5ccccc45)cs3)CC2)c(C)s1
observedProperty: logP
readoutValue: 4.12^[b]
//
compound: Cn1nc(C(F)(F)F)cc1OC(=O)N1CCC(c2nc(C(=O)OC3CCCCC3)cs2)CC1
observedProperty: logP
readoutValue: 4.36
//
compound: Cc1ccc(F)c(NC(=O)N2CCC(c3nc(C(=O)OC4CCCc5ccccc54)cs3)CC2)c1 (centres unmarked)
observedProperty: logP
readoutValue: 4.08^[b]
//
compound: Cc1ccc(I)cc1CC(=O)N1CCC(c2nc(C(=O)OC3CCCCC3)cs2)CC1
observedProperty: logP
readoutValue: 4.66^[b]
//
compound: O=C(OC1CCCCC1)c1csc(C2CCN(C(=O)Cc3cc(Cl)ccc3C(F)(F)F)CC2)n1
observedProperty: logP
readoutValue: 4.68^[b]
//
compound: Cc1ccc(C)c(CC(=O)N2CCC(c3nc(C(=O)OCc4ccccc4Br)cs3)CC2)c1
observedProperty: logP
readoutValue: 4.23
//
compound: Cc1ccc(F)c(NC(=O)N2CCC(c3nc(C(=O)OC4CCCCC4)cs3)CC2)c1
observedProperty: logP
readoutValue: 3.81^[b]
//
compound: COc1ccc(OC)c(NC(=O)N2CCC(c3nc(C(=O)OC4CCCCC4)cs3)CC2)c1
observedProperty: logP
readoutValue: 3.76^[b]
//
compound: Cc1ccc(C)c(NC(=O)N2CCC(c3nc(C(=O)Oc4ccccc4I)cs3)CC2)c1
observedProperty: logP
readoutValue: 3.69^[b]
//
compound: Cn1ncc(CC(=O)N2CCC(c3nc(C(=O)OC4CCCCC4)cs3)CC2)c1Cl
observedProperty: logP
readoutValue: 2.93^[b]
//
compound: Cc1ccc(C)c(NC(=O)N2CCC(c3nc(C(=O)Oc4c(F)cccc4F)cs3)CC2)c1
observedProperty: logP
readoutValue: 3.39^[b]
//
compound: O=C(OC1CCCCC1)c1cnc(C2CCN(C(=O)Cn3nc(C(F)F)cc3C(F)F)CC2)s1
observedProperty: logP
readoutValue: 3.97^[b]
